System: HaCat
MEASUREMENT PROTOCOL: Cytotoxic Profiling of Annotated Libraries Using Quantitative High-Throughput Screening (AID 1296008); further: nearly all actives have a fitted effect of over 60% in size
ASSAY SETUP: Five cell lines viability, CellTiter-Glo ATP luminescence, 48-72 h
Results filed as inconclusive are left out. Activity calls are given as the source filed them. The call rests on the fitted dose curve; in most records, active means well fitted inhibition curve with a large enough effect; inconclusive means small, poorly fitted or top-dose-only effect; inactive means flat fitted curve, though single readings scatter.
Just give me one of these, please: active, inactive

Worked examples, 3 molecules total:
MOLECULE: CCN(CC)CCOC(=O)C(Cc1cccc2ccccc12)CC1CCCO1 (stereo unspecified)
GROUP LABEL: inactive
--
MOLECULE: CCOC(=O)[C@@](C)(N)Cc1ccc(O)c(O)c1
GROUP LABEL: inactive
--
MOLECULE: CC1(COc2ccc(CC3SC(=O)NC3=O)cc2)CCCCC1 (stereo unspecified)
GROUP LABEL: inactive

What is the recorded call for this molecule in the test? `COc1ccccc1N1CCN(CCCCNC(=O)c2ccc(-c3ccc(C(C)=O)cc3)cc2)CC1`
inactive

What is the recorded call for this molecule in the test? CC[N+](C)(CC)CCOC(=O)C(O)(c1ccccc1)C1CCCCC1 (stereo unspecified)
inactive

What is the recorded call for this molecule in the test? `CC(=O)O[C@]1(C(C)=O)CC[C@H]2[C@@H]3C=C(Cl)C4=CC(=O)CC[C@]4(C)[C@H]3CC[C@@]21C`
inactive

What is the recorded call for this molecule in the test? `C[C@H]1O[C@@H](O[C@H]2CC[C@@]3(C)[C@H](CC[C@@H]4[C@@H]3C[C@@H](O)[C@]3(C)[C@@H](C5=CC(=O)OC5)CC[C@]43O)C2)C[C@H](O)[C@@H]1O[C@H]1C[C@H](O)[C@H](O[C@H]2C[C@H](O)[C@H](O[C@@H]3O[C@H](CO)[C@@H](O)[C@H](O)[C@H]3O)[C@@H](C)O2)[C@@H](C)O1`
active

What is the recorded call for this molecule in the test? `CCC(CC)(CC(=O)Nc1cccc(/C=C/c2nc(C3CCC3)cs2)c1)C(=O)O`
inactive

What is the recorded call for this molecule in the test? CC(=O)Nc1ccc(OCC(O)CNC(C)C)cc1 (stereo unspecified)
inactive
